- Test system: COLO 205 colon
- Experimental details: NCI tumour cell line growth inhibition, 48 h
Reported GI50 by item:

A selection of reference data follows.
COc1ccc(-c2nn(-c3cccc(Cl)c3)cc2-c2cc(-c3ccccc3)nc(N)n2)cc1	2.09 µM
CS(=O)(=O)Nc1ccc(N=Cc2c(O)[nH]c3ccccc23)cc1	> 25 µM
CCCOC(=O)CCn1c(SC)nc2[nH]cc(-c3ccccc3)c2c1=O	19.1 µM

// query Which value of GI50 has been reported for COc1cc(C2CC(c3ccc(N(C)C)cc3)=NN2C(C)=O)cc(OC)c1OC (stereo not drawn) in the records?
// result 3.06 µM

// query Request: "C[C@]12CCc3sc(Nc4ccc(O)cc4)nc3C1=CC[C@@H]1[C@@H]2CC[C@]2(C)C(=O)CC[C@@H]12"
// result 2 µM

// query Request: C/C=C/C=C/CCCCCCCCCCCCCC1(OC)C=CC(CC(=O)OC)OO1 (stereo not drawn)
// result 1.76 µM

// query Request: C=C1CCC2C3(C)COC(c4ccccc4Br)OC3CCC2(C)C1C/C=C1/C(=O)OCC1OC(C)=O (stereo not drawn)
// result 1.66 µM

// query Request: "Nc1nc(N)c(N=O)c(OCC2CCCCC2)n1"
// result 15.1 µM

// query Request: "O=C(OCCBr)c1ccc(Cl)c([N+](=O)[O-])c1"
// result 16.8 µM

// query Request: "Cc1cn2c(/C=N/Nc3ccccn3)c(-c3ccc(Cl)c([N+](=O)[O-])c3)nc2s1"
// result > 50 µM

// query Request: COc1cc2c3c(n(C)c(=O)c2cc1OC)-c1cc2c(cc1/C3=C\C(N)CN)OCO2 (stereo not drawn)
// result 2.08 µM

// query Request: "O=C(COc1cccc(/C=C2\COc3ccc(Cl)cc3C2=O)c1)c1ccc(Cl)cc1"
// result 15 µM

// query Request: "CCCOc1nc(SCCC)nc2c1cnn2-c1ccccc1"
// result > 100 µM

###

- System: HCC-2998 colon
- Experimental details: NCI tumour cell line growth inhibition, 48 h; in the data active = GI50 below about 0.43 µM; inactive = the rest
Thanks in advance; please answer with one of these: yes (active), no (inactive)

O=C(CCCSc1nc(-c2ccccc2)cc(-c2ccc(Cl)cc2)n1)NO	no
CC1(C)CC[C@]2(C(=O)N3CCOCC3)CC[C@]3(C)C(=CC[C@@H]4[C@@]5(C)C/C(=C/c6ccncc6)C(=O)C(C)(C)[C@@H]5CC[C@]43C)[C@@H]2C1	no
Nc1n[nH]c2ccc([C@@H]3Nc4ccc5[nH]ncc5c4[C@H]4C5C=CC(C5)[C@@H]34)cc12 (some centres not stated)	yes

// query Which outcome was assigned to "N.N.NCCCCCCN.O=C([O-])CC(=O)[O-].O=C([O-])CC(=O)[O-].[Pt+4].[Pt+4]" in this test?
// result no

// query Request: "O=C(CN1CCN(c2ccccc2)CC1)N1CCN(c2nnc(-c3ccc(Cl)cc3)c(-c3ccc(Cl)cc3)n2)CC1"
// result no

// query Request: "Cc1[nH]c2ccccc2c1CCNCc1ccc(/C=C/C(=O)NO)cc1"
// result yes

// query Request: "C/C=C/[C@@H]1OC(=O)C2=C[C@@H](O)[C@@H](/C=C/C)O[C@H]21"
// result no

###

Reported TGI by item:
- Tested on: NCI-H23 lung
- Experimental details: NCI tumour cell line growth inhibition, 48 h

NC(=S)N/N=C1\c2ccccc2CCC1CCC1(O)CCc2ccccc2C1=O (stereo not drawn)	87 µM
CCCC(Sc1ccccc1)P(=O)(c1ccccc1)c1ccccc1 (stereo not drawn)	> 100 µM
N#Cc1[nH]c(=O)n(-c2cccc3ccccc23)c1N	> 10 µM
Cc1ccc2c(C)c3ccc4ccccc4c3c[n+]2c1	38.6 µM
CCSc1nc(=[N+]2CCCC2)ss1	> 79.9 µM
CC(C)C12C=CC(C)(CC1)n1c(=O)c3cc4ccccc4cc3c(=O)n12 (stereo not drawn)	> 100 µM
C=C1CCC2[C@@H](CCC3[C@]2(C)CCC[C@]3(C)C(=O)OC)C1CCO (stereo partly drawn)	23.2 µM
CN(C)CC1CCCCCC(CN(C)C)C1=O (stereo not drawn)	27 µM

// query Which value of TGI has been reported for "CCCc1cc(=O)n2c(C(=O)Nc3ccccc3OC)c(C(=O)Nc3ccc(F)cc3)sc2n1" in the records?
// result > 160 µM

// query Request: "CCNCCNc1cc(C2CCCCC2)c(C#N)c2nc3ccccc3n12"
// result 5.54 µM

// query Request: "COc1ccc(C(=O)N(C(=S)OCCOc2ccccc2)c2ccccc2)cc1"
// result > 100 µM

// query Request: "Nc1ccc(-c2ccc(N)cc2I)c(I)c1"
// result 43.1 µM
